target: APJ (orphan G protein-coupled receptor protein); assay: cell-based or functional assay
Sequence (P35414 whole entry): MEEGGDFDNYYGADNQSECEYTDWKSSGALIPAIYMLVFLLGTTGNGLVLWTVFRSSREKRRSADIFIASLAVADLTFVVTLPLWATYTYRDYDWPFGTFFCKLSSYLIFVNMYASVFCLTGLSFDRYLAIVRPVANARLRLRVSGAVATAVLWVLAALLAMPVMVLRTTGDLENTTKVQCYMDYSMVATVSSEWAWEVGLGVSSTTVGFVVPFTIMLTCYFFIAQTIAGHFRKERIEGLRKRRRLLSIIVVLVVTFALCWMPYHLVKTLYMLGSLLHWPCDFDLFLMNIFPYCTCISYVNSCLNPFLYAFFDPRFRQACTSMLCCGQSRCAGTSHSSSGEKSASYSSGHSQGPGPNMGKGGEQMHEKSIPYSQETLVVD
MEASUREMENT TYPE: EC50, inhibition of forskolin-stimulated cAMP production (CHO-A10 clone 6 cells)

Consider the substance Arg-Pro-Arg-Leu-Ser-His-Lys-Gly-Pro-Cha-Pro-Phe(Cl) (peptide) and give its measured EC50, inhibition of forskolin-stimulated cAMP production (CHO-A10 clone 6 cells).
0.41 nM

Consider the substance Arg-Pro-Arg-Leu-Ser-Dap-Arg-Gly-Pro-Cha-Pro-Phe(Cl) (peptide) and give its measured EC50, inhibition of forskolin-stimulated cAMP production (CHO-A10 clone 6 cells).
0.52 nM

Consider the substance pGlu-Arg-Pro-Arg-Leu-Ser-His-Lys-Gly-Pro-Met-Pro-Nal(2) (peptide) and give its measured EC50, inhibition of forskolin-stimulated cAMP production (CHO-A10 clone 6 cells).
0.4 nM

Consider the substance Arg-Pro-Arg-Leu-Ser-Ala-Arg-Gly-Pro-Ala-Pro-Phe(Cl) (peptide) and give its measured EC50, inhibition of forskolin-stimulated cAMP production (CHO-A10 clone 6 cells).
0.37 nM
